Target: recombinant human Myt1 (Homo sapiens (Human), UniProt Q99640)
Sequence (Q99640 whole entry): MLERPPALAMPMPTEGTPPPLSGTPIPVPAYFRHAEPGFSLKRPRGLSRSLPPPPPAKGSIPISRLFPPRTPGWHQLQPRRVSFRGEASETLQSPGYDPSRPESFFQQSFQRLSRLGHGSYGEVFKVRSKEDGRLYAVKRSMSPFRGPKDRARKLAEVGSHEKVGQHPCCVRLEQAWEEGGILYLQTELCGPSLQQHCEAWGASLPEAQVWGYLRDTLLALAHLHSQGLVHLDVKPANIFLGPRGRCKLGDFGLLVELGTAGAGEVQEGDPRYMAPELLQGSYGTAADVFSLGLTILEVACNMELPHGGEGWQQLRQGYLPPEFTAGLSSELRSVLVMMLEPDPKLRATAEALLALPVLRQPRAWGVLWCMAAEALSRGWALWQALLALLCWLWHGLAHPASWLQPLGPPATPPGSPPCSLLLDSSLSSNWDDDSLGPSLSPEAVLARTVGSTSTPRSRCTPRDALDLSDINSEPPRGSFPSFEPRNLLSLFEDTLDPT
Assay: Myt1 enzymatic assay (ADP-Glo kinase assay)
Details: 18 nM enzyme, 10 uM ATP
Procedure: Detection of Myt1 kinase activity utilized a recombinant human Myt1 kinase assay measuring the hydrolysis of ATP using a commercially available ADP-Glo Assay (ADP-Glo™ Kinase Assay from Promega, 10 000 assays, #V9102). […] Luminescence was read using the Envision (250 ms integration). The IC50 and the % max inhibition were calculated for each inhibitor compound tested.
pIC50: −log10 of the molar value.
READOUT_LABEL: pIC50

SMILES_STRUCTURE: Cc1ccc(O)cc1-c1cn(C(N)=O)c2cc(Cl)cnc12
pIC50: 6.49

Inquiry: If you can, please state the reported pIC50 value of CCCCc1cnc2c(n1)c(C(N)=O)c(N)n2-c1cccc2[nH]ncc12 .
Reply text: 5.88

Inquiry: If you can, please state the reported pIC50 value of Cc1ccc(-c2cnc3c(n2)c(C(N)=O)c(N)n3-c2c(C)ccc(O)c2C)nc1 .
Reply text: > 8.00

Inquiry: If you can, please state the reported pIC50 value of Cc1ccc(O)c(Cl)c1-n1c(N)c(C(N)=O)c2cc(Cl)cnc21 .
Reply text: > 8.00

Inquiry: If you can, please state the reported pIC50 value of NC(=O)c1c(N)n(-c2cccc3[nH]ncc23)c2ncc(-c3nccs3)nc12 .
Reply text: 6.85

Inquiry: If you can, please state the reported pIC50 value of Cc1ccc(O)c(C)c1-n1c(N)c(C(N)=O)c2nc(-c3ccccn3)cnc21 .
Reply text: > 8.00

Inquiry: If you can, please state the reported pIC50 value of Cc1c(O)ccc(Cl)c1-n1c(N)c(C(N)=O)c2nc(-c3nccs3)cnc21 .
Reply text: > 8.00

Inquiry: If you can, please state the reported pIC50 value of Cc1ccc(O)c(C)c1-n1c(N)c(C(N)=O)c2nc(-c3ccncn3)cnc21 .
Reply text: > 8.00

Inquiry: If you can, please state the reported pIC50 value of NC(=O)c1c(N)n(-c2cccc3[nH]ncc23)c2ncc(C3CC3)nc12 .
Reply text: 6.97

Inquiry: If you can, please state the reported pIC50 value of Cc1cn2c(C(N)=O)c(N)c(-c3c(C)ccc(O)c3C)c2nc1C .
Reply text: > 8.00

Inquiry: If you can, please state the reported pIC50 value of Cc1ccc(O)c(C)c1-n1c(N)c(C(N)=O)c2cccnc21 .
Reply text: > 8.00

Inquiry: If you can, please state the reported pIC50 value of Cc1ccc(O)c(C)c1-n1c(N)c(C(N)=O)c2nc(N3CCCCC3)cnc21 .
Reply text: > 8.00

Inquiry: If you can, please state the reported pIC50 value of Cc1ccc(O)c(C)c1-n1c(N)c(C(N)=O)c2nc(C3CCC3)cnc21 .
Reply text: > 8.00

Inquiry: If you can, please state the reported pIC50 value of Cc1ccc(O)c(C)c1-n1c(N)c(C(N)=O)c2nc(-c3nccs3)c(C)nc21 .
Reply text: > 8.00

Inquiry: If you can, please state the reported pIC50 value of Cc1ccc(O)c(C)c1-n1c(N)c(C(N)=O)c2cc(C#N)cnc21 .
Reply text: > 8.00

Inquiry: If you can, please state the reported pIC50 value of Cc1ccc(O)c(C)c1-n1c(N)c(C(N)=O)c2cc(C3=CCOCC3)cnc21 .
Reply text: > 8.00
